# Test system: MCF-7 (breast cancer) cells
# protocol text: MTT cytotoxicity assay in MCF-7 cells
# Format: cell-based
# run conditions: Homo sapiens, MCF7
Hi there, I'd appreciate the recorded pIC50 for every entry that follows.
// pIC50: -log10(molar conc.)

## Task Which measured pIC50 value corresponds to `Cn1ccnc1/C=N/Nc1nc(-c2ccc(Br)cc2)cs1` ?
## Result 5.56

## Task Which measured pIC50 value corresponds to `Cn1ccnc1/C=N/Nc1nc(-c2ccc(-c3cccs3)cc2)cs1` ?
## Result 5.76

## Task Which measured pIC50 value corresponds to CS(=O)(=O)CCNCc1ccc(-c2ccc3ncnc(Nc4ccc(OCc5cccc(F)c5)c(Cl)c4)c3c2)o1 [Lapatinib, lapatinib, reference compound] ?
## Result 5.07

====

# System: peripheral blood mononuclear cells (PBMCs)
# protocol text: MTT cytotoxicity assay in PBMCs (selectivity)
# Format: cell-based
# run conditions: PBMC; MTT assay
property label: pIC50
// pIC50: -log10(molar conc.)

## Task // map CS(=O)(=O)CCNCc1ccc(-c2ccc3ncnc(Nc4ccc(OCc5cccc(F)c5)c(Cl)c4)c3c2)o1 [Lapatinib, lapatinib, reference compound] to recorded pIC50 (system: peripheral blood mononuclear cells (PBMCs))
## Result 5.01

## Task // map `Cn1ccnc1/C=N/Nc1nc(-c2ccc(-c3cccs3)cc2)cs1` to recorded pIC50 (system: peripheral blood mononuclear cells (PBMCs))
## Result 3.64

## Task // map `Cn1ccnc1/C=N/Nc1nc(-c2ccc(Br)cc2)cs1` to recorded pIC50 (system: peripheral blood mononuclear cells (PBMCs))
## Result 4.14

====

# measured on: UniProt P15121
Hi there, I'd appreciate the recorded Ki for every entry that follows.
Record the value in nM, omitting the unit from your answer.

## Task Which measured Ki value corresponds to `Cn1ccnc1/C=N/Nc1nc(-c2ccccc2)cs1` ?
## Result 2640

## Task Which measured Ki value corresponds to `Cn1ccnc1/C=N/Nc1nc(-c2ccc(F)cc2)cs1` ?
## Result 440

## Task Which measured Ki value corresponds to `Cn1ccnc1/C=N/Nc1nc(-c2ccc(-c3cccs3)cc2)cs1` ?
## Result 2480

## Task Which measured Ki value corresponds to `Cn1ccnc1/C=N/Nc1nc(-c2ccc([N+](=O)[O-])cc2)cs1` ?
## Result 1830

## Task Which measured Ki value corresponds to `Cn1ccnc1/C=N/Nc1nc(-c2ccc(Br)cc2)cs1` ?
## Result 80

## Task Which measured Ki value corresponds to `Cc1ccc(-c2csc(N/N=C/c3nccn3C)n2)cc1` ?
## Result 280

## Task Which measured Ki value corresponds to `COc1ccc(-c2csc(N/N=C/c3nccn3C)n2)cc1` ?
## Result 210

## Task Which measured Ki value corresponds to `Cn1ccnc1/C=N/Nc1nc(-c2ccc(S(C)(=O)=O)cc2)cs1` ?
## Result 240
